Target: UniProt P31652
Sequence (P31652 whole entry): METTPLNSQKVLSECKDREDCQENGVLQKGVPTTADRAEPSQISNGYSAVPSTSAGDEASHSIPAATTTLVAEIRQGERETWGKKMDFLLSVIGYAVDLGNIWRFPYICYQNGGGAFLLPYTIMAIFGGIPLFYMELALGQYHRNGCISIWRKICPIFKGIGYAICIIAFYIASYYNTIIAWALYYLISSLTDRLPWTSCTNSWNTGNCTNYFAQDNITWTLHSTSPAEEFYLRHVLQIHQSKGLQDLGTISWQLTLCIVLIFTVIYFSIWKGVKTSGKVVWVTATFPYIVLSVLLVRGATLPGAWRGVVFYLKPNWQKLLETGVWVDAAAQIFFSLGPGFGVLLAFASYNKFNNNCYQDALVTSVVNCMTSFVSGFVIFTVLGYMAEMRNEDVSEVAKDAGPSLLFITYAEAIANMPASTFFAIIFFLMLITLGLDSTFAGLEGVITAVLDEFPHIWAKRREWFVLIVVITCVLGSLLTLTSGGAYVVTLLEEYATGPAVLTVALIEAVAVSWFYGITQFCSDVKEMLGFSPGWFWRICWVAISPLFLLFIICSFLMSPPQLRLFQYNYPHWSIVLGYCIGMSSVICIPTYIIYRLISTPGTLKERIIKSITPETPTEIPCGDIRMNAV
assay.metric: Ki
Output should be the measured figure followed by the unit it is expressed in.

Recorded Ki for CNCCOC(c1ccccc1)c1ccnn1C (stereo not shown) with UniProt P31652, please?
116 nM

# credit: patent US20070021485A1
